# measurement target: UniProt:Q02790
# Sequence (Q02790 50-138 limits assumed): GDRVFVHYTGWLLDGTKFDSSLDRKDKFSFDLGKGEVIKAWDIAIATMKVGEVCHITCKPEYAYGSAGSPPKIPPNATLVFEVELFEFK
value kind: Ki

Ki measured on COC[C@H]1CN(Cc2cnn[nH]2)C(=O)[C@@H]2CCC[C@H]1N2S(=O)(=O)c1ccc(NC(C)=O)c(Br)c1 = ≤ 100 nM

Ki measured on COCCN1C[C@H](C(C)O)C2CCCC(C1=O)N2S(=O)(=O)c1cc(Cl)cc(Cl)c1 (stereo in doubt) = ≤ 100 nM

Ki measured on C=CC1CN(Cc2ccccn2)C(=O)C2CCCC1N2S(=O)(=O)c1cc(Br)cc(Br)c1 (stereo in doubt) = ≤ 100 nM

Ki measured on C#CCN1C[C@H](COC)[C@H]2CCC[C@@H](C1=O)N2S(=O)(=O)c1cc(Br)cc(Br)c1 = 100 to 500 nM

Ki measured on COCCO[C@H]1CN(CCOC)C(=O)[C@@H]2CCC[C@H]1N2S(=O)(=O)c1cc(Cl)cc(Cl)c1 = 100 to 500 nM

Ki measured on COCCCCN1C[C@@H](CO)[C@H]2CCC[C@@H](C1=O)N2S(=O)(=O)c1cc(Cl)cc(Cl)c1 = 500 to 1000 nM

Ki measured on C=CC1CN(Cc2ccccn2)C(=O)C2CCCC1N2S(=O)(=O)c1ccc(-c2ncccn2)cc1 (stereo in doubt) = ≤ 100 nM

Ki measured on COC[C@H]1CN(Cc2cnn[nH]2)C(=O)[C@@H]2CCC[C@H]1N2S(=O)(=O)c1cccc(F)c1 = ≤ 100 nM

Ki measured on COC[C@H]1CN(Cc2cnn[nH]2)C(=O)[C@@H]2CCC[C@H]1N2S(=O)(=O)c1ccc(NC(C)=O)c(Cl)c1 = ≤ 100 nM

Ki measured on COC[C@H]1CN(Cc2cnn[nH]2)C(=O)[C@@H]2CCC[C@H]1N2S(=O)(=O)c1cc(Br)cc(C(N)=O)c1 = ≤ 100 nM

Ki measured on C=CC1CNC(=O)C2CCCC1N2S(=O)(=O)c1cc(Cl)cc(Cl)c1 (stereo in doubt) = 500 to 1000 nM

Ki measured on C=CC1CN(Cc2ccccn2)C(=O)C2CCCC1N2S(=O)(=O)c1cccc(Cl)c1 (stereo in doubt) = 100 to 500 nM

Ki measured on C=CC1CN(Cc2ccccn2)C(=O)C2CCCC1N2S(=O)(=O)c1nc2ccccc2[nH]1 (stereo in doubt) = ≤ 100 nM

Ki measured on O=C1NC[C@H](O)[C@H]2CCC[C@@H]1N2S(=O)(=O)c1cc(Cl)cc(Cl)c1 = 100 to 500 nM

Ki measured on C=CC1CN(CCNC)C(=O)C2CCCC1N2S(=O)(=O)c1cc(Cl)cc(Cl)c1 (stereo in doubt) = 100 to 500 nM

Ki measured on COC[C@H]1CN(Cc2cnn[nH]2)C(=O)[C@@H]2CCC[C@H]1N2S(=O)(=O)c1cc(Cl)c(NC(C)=O)c(Cl)c1 = ≤ 100 nM

Ki measured on C=CC1CN(Cc2ccccn2)C(=O)C2CCCC1N2S(=O)(=O)c1ccc2nc(C)sc2c1 (stereo in doubt) = ≤ 100 nM

Ki measured on COc1ccc(OCCN2CCC3CCCC(C2=O)N3S(=O)(=O)c2ccc3ncsc3c2)cc1OC (stereo not shown) [Ref. 2, reference compound] = 1000 to 5000 nM

Ki measured on C=CC1CN(CC(N)=O)C(=O)C2CCCC1N2S(=O)(=O)c1cc(Cl)cc(Cl)c1 (stereo in doubt) = 100 to 500 nM

Ki measured on COc1ccc(OCCN2C[C@H](C(C)O)C3CCCC(C2=O)N3S(=O)(=O)c2cc(Cl)cc(Cl)c2)cc1OC (stereo in doubt) = ≤ 100 nM

Ki measured on C#CCN1C[C@H](COC)[C@H]2CCC[C@@H](C1=O)N2S(=O)(=O)c1cc(Cl)cc(C(=O)OC)c1 = 100 to 500 nM

Ki measured on C=C[C@@H]1CN(Cc2ccccn2)C(=O)[C@@H]2CCC[C@H]1N2S(=O)(=O)c1cccc(C#N)c1 = 100 to 500 nM

Ki measured on C=C[C@@H]1CN(Cc2ccncn2)C(=O)[C@@H]2CCC[C@H]1N2S(=O)(=O)c1cc(Cl)cc(Cl)c1 = 100 to 500 nM

Ki measured on N[C@@H]1CNC(=O)[C@@H]2CCC[C@H]1N2S(=O)(=O)c1cc(Cl)cc(Cl)c1 = 1000 to 5000 nM

Ki measured on O=C1C2CCCC(C(CO)CN1CCO)N2S(=O)(=O)c1cc(Cl)cc(Cl)c1 (stereo in doubt) = ≤ 100 nM

Ki measured on C#CCN1C[C@H](COC)[C@H]2CCC[C@@H](C1=O)N2S(=O)(=O)c1ccc(NC(C)=O)c(Br)c1 = 100 to 500 nM

Ki measured on C#CCN1C[C@H](COC)[C@H]2CCC[C@@H](C1=O)N2S(=O)(=O)c1cc(Cl)c(NC(C)=O)c(Cl)c1 = 100 to 500 nM

Ki measured on COC[C@H]1CN(Cc2cnn[nH]2)C(=O)[C@@H]2CCC[C@H]1N2S(=O)(=O)c1cccnc1 = ≤ 100 nM
